Biological target: Prostaglandin G/H synthase 2 (Homo sapiens)
Sequence (whole entry): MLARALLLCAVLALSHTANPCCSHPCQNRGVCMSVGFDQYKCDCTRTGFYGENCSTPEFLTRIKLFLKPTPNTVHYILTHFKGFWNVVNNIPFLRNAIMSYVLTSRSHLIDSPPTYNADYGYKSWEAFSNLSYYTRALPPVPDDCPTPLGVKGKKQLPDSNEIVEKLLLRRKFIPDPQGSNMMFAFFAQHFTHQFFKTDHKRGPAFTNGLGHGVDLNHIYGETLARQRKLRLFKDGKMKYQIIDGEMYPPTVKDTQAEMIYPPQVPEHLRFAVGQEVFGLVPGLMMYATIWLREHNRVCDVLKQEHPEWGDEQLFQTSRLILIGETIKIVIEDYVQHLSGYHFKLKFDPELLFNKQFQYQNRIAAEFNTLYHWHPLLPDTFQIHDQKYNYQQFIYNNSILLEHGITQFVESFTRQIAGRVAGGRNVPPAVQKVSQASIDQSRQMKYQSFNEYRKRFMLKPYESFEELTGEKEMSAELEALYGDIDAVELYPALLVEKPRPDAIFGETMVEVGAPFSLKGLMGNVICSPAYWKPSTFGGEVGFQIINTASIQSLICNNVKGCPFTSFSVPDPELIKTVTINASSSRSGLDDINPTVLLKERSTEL
Assay: Inhibition of IL-1 beta-induced COX-2 activity in human SW982 cells assessed as enzyme activity at LD50 treated for 24 hrs prior to incubation with IL-1 beta for 6 hrs (reference value: 100.0%)
Type: cell-based
Design: scale not given: the % may be the effect or the level left
measured-quantity: Activity (%)
Numbers only, in %.

Below, 3 compounds whose answers are already recorded.
- compound: "COC(=O)[C@]1(C)[C@@H]2CC[C@]3(C)[C@H](C(=O)C=C4[C@@H]5[C@@H](C)[C@H](C)CC[C@]5(C)CC[C@]43C)[C@@]2(C)CC[C@H]1OC(=O)C(C)c1ccc(CC(C)C)cc1 (mixture of isomers)"
  Activity, %: 27.7
- compound: "C[C@H]1[C@H](C)CC[C@]2(C)CC[C@]3(C)C(=CC[C@@H]4[C@@]5(C)CC[C@@H](O)[C@](C)(C(=O)O)[C@@H]5CC[C@]43C)[C@H]12 [BOSWELLIC ACID]"
  Activity, %: 50.8
- compound: "C[C@H]1[C@H](C)CC[C@]2(C)CC[C@]3(C)C(=CC(=O)[C@@H]4[C@@]5(C)CC[C@@H](O)[C@](C)(C(=O)O)[C@@H]5CC[C@]43C)[C@H]12 [11-KETO BOSWELLIC ACID]"
  Activity, %: 27.4

Query string: Identify measured Activity associated with COC(=O)[C@]1(C)[C@@H]2CC[C@]3(C)[C@H](CC=C4[C@@H]5[C@@H](C)[C@H](C)CC[C@]5(C)CC[C@]43C)[C@@]2(C)CC[C@H]1OC(=O)C(C)c1ccc(CC(C)C)cc1 (mixture of isomers)
Result string: 30.2
